The following compounds are shown together with reported cell viability values.
tested on: HL-60; assay: cell viability (% survival relative to DMSO control); higher = less cytotoxic; conditions: 10 µM; 72 h; co-treatment: AZD3965 100 nM
MEASURED PROPERTY: cell viability (%)

COMPOUND: O=C(O)c1nn(Cc2ccc(Cl)cc2Cl)c2ccccc12
NUMERIC VALUE: 95.4
//
COMPOUND: C1CCc2nnc(C34CC5CC(CC(C5)C3)C4)n2CC1
NUMERIC VALUE: 108
//
COMPOUND: [N-]=[N+]=CC(=O)CC[C@H](N)C(=O)O
NUMERIC VALUE: 100
//
COMPOUND: CC(Cc1ccc(O)c(O)c1)C(C)Cc1ccc(O)c(O)c1 (centres undefined)
NUMERIC VALUE: 10.8
//
COMPOUND: Oc1cc(Cl)ccc1Oc1ccc(Cl)cc1Cl
NUMERIC VALUE: 103
//
COMPOUND: C1CCC(C(CC2CCCCN2)C2CCCCC2)CC1.O=C(O)/C=C\C(=O)O (centres undefined)
NUMERIC VALUE: -0.971
//
COMPOUND: O=C(O)C(Cl)Cl [Dichloroacetate]
NUMERIC VALUE: 101
//
COMPOUND: C[C@]12O[C@H](C[C@]1(O)CO)n1c3ccccc3c3c4c(c5c6ccccc6n2c5c31)CNC4=O
NUMERIC VALUE: -1.19
//
COMPOUND: OCCN1CCN(CCCN2c3ccccc3Sc3ccc(Cl)cc32)CC1
NUMERIC VALUE: 86.3
